Entries below carry reported pIC50 on UniProt Q92887.
Sequence (Q92887 whole entry): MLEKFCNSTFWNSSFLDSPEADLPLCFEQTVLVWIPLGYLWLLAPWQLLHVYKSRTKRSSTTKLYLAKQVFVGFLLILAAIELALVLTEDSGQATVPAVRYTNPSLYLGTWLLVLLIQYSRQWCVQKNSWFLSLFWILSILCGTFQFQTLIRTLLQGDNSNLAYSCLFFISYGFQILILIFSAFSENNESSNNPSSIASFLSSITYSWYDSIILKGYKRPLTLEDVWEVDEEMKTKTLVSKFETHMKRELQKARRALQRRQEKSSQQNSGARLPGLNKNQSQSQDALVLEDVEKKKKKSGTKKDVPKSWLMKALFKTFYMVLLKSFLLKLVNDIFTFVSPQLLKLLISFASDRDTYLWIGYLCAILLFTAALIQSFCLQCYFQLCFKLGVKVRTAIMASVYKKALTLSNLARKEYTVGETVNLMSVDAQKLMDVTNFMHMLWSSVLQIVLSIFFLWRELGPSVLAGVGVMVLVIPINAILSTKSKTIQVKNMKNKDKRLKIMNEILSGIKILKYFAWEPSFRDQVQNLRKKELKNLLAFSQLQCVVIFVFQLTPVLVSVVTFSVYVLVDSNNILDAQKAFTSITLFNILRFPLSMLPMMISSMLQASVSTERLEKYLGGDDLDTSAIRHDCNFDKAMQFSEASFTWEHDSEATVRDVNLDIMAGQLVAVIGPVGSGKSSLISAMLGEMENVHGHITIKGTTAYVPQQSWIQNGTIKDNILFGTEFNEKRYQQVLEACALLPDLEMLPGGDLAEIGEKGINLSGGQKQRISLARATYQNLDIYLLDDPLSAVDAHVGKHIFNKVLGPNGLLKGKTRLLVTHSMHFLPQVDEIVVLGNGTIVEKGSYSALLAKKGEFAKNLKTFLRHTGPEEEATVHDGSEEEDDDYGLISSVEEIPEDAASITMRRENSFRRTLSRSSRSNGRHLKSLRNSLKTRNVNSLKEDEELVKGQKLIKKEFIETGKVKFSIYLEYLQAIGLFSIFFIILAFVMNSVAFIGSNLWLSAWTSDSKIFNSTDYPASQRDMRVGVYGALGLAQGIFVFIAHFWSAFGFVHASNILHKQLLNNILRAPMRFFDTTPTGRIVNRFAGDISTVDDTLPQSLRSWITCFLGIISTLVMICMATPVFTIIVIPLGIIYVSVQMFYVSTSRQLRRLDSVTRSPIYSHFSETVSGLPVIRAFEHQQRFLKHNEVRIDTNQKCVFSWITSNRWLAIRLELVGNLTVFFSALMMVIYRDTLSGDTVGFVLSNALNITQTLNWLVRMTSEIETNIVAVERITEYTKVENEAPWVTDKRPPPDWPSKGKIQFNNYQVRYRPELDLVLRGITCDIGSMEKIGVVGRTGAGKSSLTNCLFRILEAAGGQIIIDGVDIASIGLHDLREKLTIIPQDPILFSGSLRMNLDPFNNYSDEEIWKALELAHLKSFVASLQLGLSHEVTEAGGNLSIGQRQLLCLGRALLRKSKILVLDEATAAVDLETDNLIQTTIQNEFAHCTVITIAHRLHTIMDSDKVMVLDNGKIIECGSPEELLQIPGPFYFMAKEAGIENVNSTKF
Scale note: pIC50 = -log10(concentration in M).

The compound listed as CC#C[C@@H](CC(=O)O)c1ccc(O[C@@H]2CCc3c(-c4ccc(O[C@@H]5CCOC5)nc4)ccc(F)c32)cc1 [Reference Example 1] has a reported pIC50 of 4.40

***
GET /value?item= Cc1cc(OCCCS(C)(=O)=O)cc(C)c1-c1cccc(COc2ccc3c(c2)OC[C@H]3CC(=O)O)c1 &field=pIC50 returns 4.61

* * *

assay: Single ascending dose (SAD) study in healthy human, plasma PK; assay type: in vivo; details: human, plasma, po, 5 mg, single oral dose 5 mg fed, read-out: AUClast, geometric mean
quantity_name: AUC(0-t) (ng·h/mL)
A number alone suffices; assume ng·h/mL.

Quick note, AUC(0-t) for CC#C[C@@H](CC(=O)O)c1ccc(O[C@@H]2CCc3c(-c4ccc(O[C@@H]5CCOC5)nc4)ccc(F)c32)cc1 [Reference Example 1] landed at 6930
